These entries and their values trace back to patent EP2508526A1.

# test system: hCCR2b (Homo sapiens)
# Sequence (P41597 1-360 isoform P41597-2): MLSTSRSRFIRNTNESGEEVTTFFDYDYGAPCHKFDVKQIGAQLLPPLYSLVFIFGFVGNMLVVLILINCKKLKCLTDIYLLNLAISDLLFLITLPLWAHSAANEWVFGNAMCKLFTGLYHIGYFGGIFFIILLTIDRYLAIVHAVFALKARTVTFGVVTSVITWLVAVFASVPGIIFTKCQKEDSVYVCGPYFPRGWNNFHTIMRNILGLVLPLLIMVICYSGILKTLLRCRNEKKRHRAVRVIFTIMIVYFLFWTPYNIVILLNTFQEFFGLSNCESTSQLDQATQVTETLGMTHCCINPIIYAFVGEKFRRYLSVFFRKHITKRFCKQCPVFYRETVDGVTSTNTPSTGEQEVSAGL
# assay summary: CCR2 binding assay ([125I]MCP-1, SPA, CHO cell membranes)
# Set-up: expressed in transfected cells; host or cells: CHO cells (membrane preparation)
# assay setup: membranes from CHO cells expressing hCCR2b, 50 pM [125I]MCP-1; read-out: Binding hCCR2 (Ki)
# Protocol: Membranes were prepared from CHO cells expressing mCCR2b or hCCR2b for use in ligand binding studies. […] Binding was performed for 90 min at RT with strong agitation of speed 5 (Heidolph Titramax 100 SCITEC) and bound radioactivity was measured on a PerkinElmer 1450 MicroBeta counter. Specific binding was calculated by subtracting remaining radioactivity in the presence of 1000-fold excess of unlabeled compound. Binding data were analyzed using the Genedata Screener® software.
pKi: −log10 of the molar value.
readout: pKi

# compound, pKi
records = [
    ("CC1=C(C(=O)N2CCN(c3cccc(C(F)(F)F)c3)CC2)C2(CCN(CC(C)c3ccccc3)CC2)OC1=O (stereo not drawn)", "> 7.30"),
    ("CCN1CCC2(CC1)OC(=O)C(C)=C2C(=O)N1CCN(c2ccc(Cl)c(C(F)(F)F)c2)CC1", "> 7.30"),
    ("CC1=C(C(=O)N2CCN(c3cccc(C(F)(F)F)c3)CC2)C2(CCN(Cc3cc4ccccc4[nH]3)CC2)OC1=O", "5.70 to 6.30"),
    ("CCN1CCC2(CC1)OC(=O)C(C)=C2C(=O)N1CCN(c2cccc(C(F)(F)F)c2)CC1", "> 7.30"),
]

Form: item CCN1CCC2(CC1)OC(=O)C(C)=C2C(=O)NCCc1ccc(C(F)(F)F)cc1 ; test system hCCR2b (Homo sapiens); pKi: 5.70 to 6.30

Form: item CC1=C(C(=O)N2CCc3ccc(C(F)(F)F)cc3C2)C2(CCN(C3CCCC3)CC2)OC1=O ; test system hCCR2b (Homo sapiens); pKi: > 7.30

Form: item CC1=C(C(=O)N2CCc3ccc(C(F)(F)F)cc3C2)C2(CCN(C3CCCS(=O)(=O)C3)CC2)OC1=O (stereo not drawn) ; test system hCCR2b (Homo sapiens); pKi: 7.00 to 7.30

Form: item CCN1CCC2(CC1)OC(=O)C(C)=C2C(=O)N1CCN(c2cc(C(F)(F)F)cc(C(F)(F)F)c2)CC1 ; test system hCCR2b (Homo sapiens); pKi: > 7.30

Form: item CCN1CCC2(CC1)OC(=O)C(C)=C2C(=O)N1CCCN(c2cccc(F)c2)CC1 ; test system hCCR2b (Homo sapiens); pKi: 5.70 to 6.30

Form: item CCN1CCC2(C1)OC(=O)C(C)=C2C(=O)N1CCc2ccc(C(F)(F)F)cc2C1 (stereo not drawn) ; test system hCCR2b (Homo sapiens); pKi: > 7.30

Form: item CC1=C(C(=O)N2CCN(c3cccc(C(F)(F)F)c3)CC2)C2(CCN(CCc3ccc(Cl)cc3)CC2)OC1=O ; test system hCCR2b (Homo sapiens); pKi: > 7.30

====

# test system: hCCR2b (Homo sapiens)
# assay summary: CCR2 binding assay ([125I]MCP-1, SPA, CHO cell membranes)
# Set-up: expressed in transfected cells; host or cells: CHO cells (membrane preparation)
# assay setup: membranes from CHO cells expressing hCCR2b, 50 pM [125I]MCP-1; read-out: Binding hCCR2 (Ki)
pKi: −log10 of the molar value.
readout: pKi

# compound, pKi
rows = [
    ("CCN1CCC2(CC1)OC(=O)C(C)=C2C(=O)Nc1ccc(-c2cccc(C(F)(F)F)c2)cc1", "5.70 to 6.30"),
    ("CC1=C(C(=O)N2CCN(c3cccc(C(F)(F)F)c3)CC2)C2(CCN(C3CCC(C(=O)O)CC3)CC2)OC1=O (stereo not drawn)", "7.00 to 7.30"),
]

Please examine the following record next.
For CCN1CCC2(CC1)OC(=O)C(C)=C2C(=O)N1C[C@@H]2C[C@H]1CN2c1nccc(C(F)(F)F)n1 the compound record lists pKi as > 7.30

====

List of Ki values.
# test system: hCCR2b (Homo sapiens)
# assay summary: CCR2 binding assay ([125I]MCP-1, SPA, CHO cell membranes)
# Parameters: expressed in transfected cells; host or cells: CHO cells (membrane preparation)
# assay setup: membranes from CHO cells expressing hCCR2b, 50 pM [125I]MCP-1; read-out: Binding hCCR2 (Ki)

Some molecules with known Ki results, for comparison:
# molecule, result
data = [
    ("CCN1CCC2(CC1)OC(=O)C(C)=C2C(=O)N1CCc2ccc(C#N)cc2C1", "100 to 500 nM"),
    ("CCCN1CCC2(CC1)OC(=O)C(C)=C2C(=O)N1CCc2ccc(C(F)(F)F)cc2C1", "< 50 nM"),
    ("CCN1CCC2(CC1)OC(=O)C(C)=C2C(=O)NCCc1cccc(C(F)(F)F)c1", "500 to 2000 nM"),
    ("CCN1CCC2(CC1)OC(=O)C(C)=C2C(=O)Nc1ccc(-n2ccc(C(F)(F)F)n2)cc1", "500 to 2000 nM"),
    ("CC1=C(C(=O)N2CCN(c3cccc(C(F)(F)F)c3)CC2)C2(CCN(CCc3ccc(F)cc3)CC2)OC1=O", "< 50 nM"),
]

For CC1=C(C(=O)N2CCN(c3cccc(C(F)(F)F)c3)CC2)C2(CCN(CC(C)C)CC2)OC1=O the molecule record lists Ki as < 50 nM

For CCN1CCC2(CC1)OC(=O)C(C)=C2C(=O)N1CCc2ncc(C(F)(F)F)cc2C1 the molecule record lists Ki as < 50 nM

For CC1=C(C(=O)N2CCc3ccc(C(F)(F)F)cc3C2)C2(CCN(C3COC3)CC2)OC1=O the molecule record lists Ki as 50 to 100 nM

====

# test system: hCCR2b (Homo sapiens)
# assay summary: CCR2 binding assay ([125I]MCP-1, SPA, CHO cell membranes)
# Set-up: expressed in transfected cells; host or cells: CHO cells (membrane preparation)
# assay setup: membranes from CHO cells expressing hCCR2b, 50 pM [125I]MCP-1; read-out: Binding hCCR2 (Ki)
List of Ki values.

# compound, readout, result
data = [
    ("CC1=C(C(=O)N2CCc3ccc(C(F)(F)F)cc3C2)C2(CCN(C(C)(C)C)CC2)OC1=O", "Ki", "< 50 nM"),
    ("CC1=C(C(=O)N2CCc3ncc(C(F)(F)F)cc3C2)C2(CCN(C3CCOCC3)CC2)OC1=O", "Ki", "< 50 nM"),
    ("CC1=C(C(=O)N2CCc3ccc(C(F)(F)F)cc3C2)C2(CCN(C3CCN(C)CC3)CC2)OC1=O", "Ki", "100 to 500 nM"),
]

Please examine the following record next.
Form: item CC1=C(C(=O)N2CCc3ccc(C(F)(F)F)cc3C2)C2(CCN(C3CCOC(C)C3)CC2)OC1=O (stereo not shown) ; test system hCCR2b (Homo sapiens); Ki: < 50 nM

====

# test system: UniProt P41597
# assay summary: CCR2 binding assay ([125I]MCP-1, SPA, CHO cell membranes)
# Set-up: expressed in transfected cells; host or cells: CHO cells (membrane preparation)
# assay setup: membranes from CHO cells expressing hCCR2b, 50 pM [125I]MCP-1; read-out: Binding hCCR2 (Ki)
pKi: −log10 of the molar value. Counter-ions that a name gives are not always drawn.
List of pKi values.

Some compounds with known pKi results, for comparison:
# compound, pKi
records = [
    ("CC1=C(C(=O)N2CCc3ncc(C(F)(F)F)cc3C2)C2(CCN(CC3CCOC3)CC2)OC1=O (stereo not shown) [Compound 46]", "> 7.30"),
    ("COCCCN1CCC2(CC1)OC(=O)C(C)=C2C(=O)N1CCN(c2cccc(C(F)(F)F)c2)CC1 [Example 2]", "> 7.30"),
    ("CC1=C(C(=O)N2CCN(c3cccc(C(F)(F)F)c3)CC2)C2(CCNCC2)OC1=O [Example 1, dihydrochloride salt]", "6.30 to 7.00"),
    ("CC1=C(C(=O)N2CCc3ncc(C(F)(F)F)cc3C2)C2(CCNCC2)OC1=O [Compound 78]", "6.30 to 7.00"),
]

For CC1=C(C(=O)N2CCc3ccc(C(F)(F)F)cc3C2)C2(CCN(CCO)CC2)OC1=O [Compound 20] the compound record lists pKi as > 7.30

For CC1=C(C(=O)N2CCN(c3cccc(Cl)c3)CC2)C2(CCN(Cc3ccccc3)CC2)OC1=O [Compound 110] the compound record lists pKi as 5.70 to 6.30

For CCN1CCC2(CC1)OC(=O)C(C)=C2C(=O)N1CCN(c2cccc(C)c2)CC1 [Compound 68] the compound record lists pKi as 5.70 to 6.30

====

# test system: hCCR2b (Homo sapiens)
# assay summary: CCR2 binding assay ([125I]MCP-1, SPA, CHO cell membranes)
# Set-up: expressed in transfected cells; host or cells: CHO cells (membrane preparation)
# assay setup: membranes from CHO cells expressing hCCR2b, 50 pM [125I]MCP-1; read-out: Binding hCCR2 (Ki)
pKi: −log10 of the molar value.
readout: pKi

# molecule, result
measured = [
    ("CCN1CCC2(CC1)OC(=O)C(C)=C2C(=O)NCCCc1cccc(C(F)(F)F)c1 [Compound 92]", "6.30 to 7.00"),
]

For CC1=C(C(=O)N2CCc3ncc(C(F)(F)F)cc3C2)C2(CCN(C)CC2)OC1=O [Compound 122] the molecule record lists pKi as > 7.30

For CC1=C(C(=O)N2CCN(c3cccc(C(F)(F)F)c3)CC2)C2(CCN(CC(=O)O)CC2)OC1=O [Compound 9] the molecule record lists pKi as 6.30 to 7.00

For CC1=C(C(=O)N2CCN(c3cccc(C(F)(F)F)c3)CC2)C2(CCN(CCCc3ccccc3)CC2)OC1=O [Example 5] the molecule record lists pKi as > 7.30

For CC1=C(C(=O)N2CCc3ccc(C(F)(F)F)cc3C2)C2(CCN(C)CC2)OC1=O [Compound 27] the molecule record lists pKi as > 7.30

For CCN1CCC2(CC1)OC(=O)C(C)=C2C(=O)NCC(=O)Nc1cccc(C(F)(F)F)c1 [Compound 56] the molecule record lists pKi as > 7.30

For COc1ccc(C2(O)CCC(N3CCC4(CC3)OC(=O)C(C)=C4C(=O)N3CCc4ccc(C(F)(F)F)cc4C3)CC2)cn1 (stereo not drawn) [Compound 25] the molecule record lists pKi as > 7.30

For CC1=C(C(=O)N2CCN(c3cccc(C(F)(F)F)c3)CC2)C2(CCN(C3CCOCC3)CC2)OC1=O [Compound 21] the molecule record lists pKi as > 7.30

For CC1=C(C(=O)N2CCc3ccc(C(F)(F)F)cc3C2)C2(CCN(C3CCCCC3)CC2)OC1=O [Compound 29] the molecule record lists pKi as > 7.30

For CCN1CCC2(CC1)OC(=O)C(C)=C2C(=O)N1CCc2ccc(C(F)(F)F)cc2C1 [Compound 97] the molecule record lists pKi as > 7.30

For CC1=C(C(=O)N2CCN(c3cccc(C(F)(F)F)c3)CC2)C2(CCN(C(C)Cc3ccccc3)CC2)OC1=O (stereo not drawn) [Compound 104] the molecule record lists pKi as > 7.30

For CCN1CCC2(CC1)OC(=O)C(C)=C2C(=O)N1CCC(Nc2ccc(C(F)(F)F)cc2)C1 (stereo not drawn) [Compound 83] the molecule record lists pKi as > 7.30
